Biological target: recombinant homotrimeric HA A/Anhui/1/05 H5N1 (Influenza A virus A/Anhui/1/2005(H5N1))
Test: protein microarray, purified IgG, trimeric HA
Conditions: remark: other sources report otherwise
Classify by measured Trimeric HA Binding: RLU: y if it is equal to or exceeds 5000 RLU, n if it is smaller.

Textbook exercise: given the entry TCN-551 (5243_D01) (antibody, V domains shown) VH: EVQLVQSGSEVKKPGESLKISCKGSGYSFSNYWIGWVRHMPGKGLEWMGIIYPGDSDTRYSPSFQGQVTMSADKSSSTVYLQWSSLKASDTAIYYCARRGGHSFGYGSGGDTHSEFDSWGQGTLVTVSS VL: QSVLTQSPSVSAAPGQKVTISCSGSDSNIGDYFVCWYQHLPGKPPQLLIYENNKRPSGIPDRFSGSKSGTSATLGITGIQTGDEADYYCATWDGSLSAWVFGGGTKLTVL , state whether its Trimeric HA Binding: RLU is greater than or equal to 5000 RLU.
y
